Molecular target: DGI-2 (Homo sapiens)
Construct: encompassed the entire DGI-2 open reading frame (ORF); His-tag of vector pIVEX2.3-MCS (inferred from the vector and from the reverse primer lacking a stop codon); made in house; host or cells: cell-free in vitro translation (Rapid Translation System RTS, Roche; E. coli lysate)
Sequence (Q15004 1-111): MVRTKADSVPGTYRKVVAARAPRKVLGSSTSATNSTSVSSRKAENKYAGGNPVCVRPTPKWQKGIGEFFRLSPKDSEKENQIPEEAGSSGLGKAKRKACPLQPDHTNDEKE
Assay: ELISA analysis of phage on DGI-2 polypeptide (specific binding)
Conditions: binding to DGI-2 polypeptide (specific binding); phage ELISA units read at 405 nm
Can you tell me DGI-2 (OD) for the items I'm about to list?
// note: answer is a bare numeric in OD

q: Checklist item: DGI-2 (OD) tested on DGI-2 (Homo sapiens), entry VCSGGKGTWLEIPDRVRSST (DGI-2-20F-PP-A22; listed as Escherichia coli) , value?
a: 3.3

q: Checklist item: DGI-2 (OD) tested on DGI-2 (Homo sapiens), entry VSGY#SLWWCGPGWGPRSGR (VSGYSLWWCGPGWGPRSGR; DGI-2-20F-PP-H11; listed as Escherichia coli) , value?
a: 1.6

q: Checklist item: DGI-2 (OD) tested on DGI-2 (Homo sapiens), entry RQRSGGRWVVDRVTRVASTSP (DGI-2-20F-PP-B12; listed as Escherichia coli) , value?
a: 2.3

q: Checklist item: DGI-2 (OD) tested on DGI-2 (Homo sapiens), entry VHSQGRMWAIPGLRGGTGAS (DGI-2-20R-3-D7; listed as Escherichia coli) , value?
a: 5.2

q: Checklist item: DGI-2 (OD) tested on DGI-2 (Homo sapiens), entry GRAGTSMTELVAWGFVQRVG (DGI-2-20F-PP-H10; listed as Escherichia coli) , value?
a: 1.4

q: Checklist item: DGI-2 (OD) tested on DGI-2 (Homo sapiens), entry GVVRAQQGLRYELQGDRYRLRRTQWLTVTYCSPSWAFAGC (DGI-2-40F-3-B116; listed as Escherichia coli) , value?
a: 1.7

q: Checklist item: DGI-2 (OD) tested on DGI-2 (Homo sapiens), entry LVIGQRSFLSACSLFDGFCV (DGI-2-20R-4-H814; listed as Escherichia coli) , value?
a: 9.5

q: Checklist item: DGI-2 (OD) tested on DGI-2 (Homo sapiens), entry VWRDWVNGTVGLRNREKPGV (DGI2-20R-3-A5; listed as Escherichia coli) [DGI-2-20R-3-A5] , value?
a: 10.9

q: Checklist item: DGI-2 (OD) tested on DGI-2 (Homo sapiens), entry YGTAGLFLRRACTMSDPGDPLGRRGYTGWGVLWDEWVTGS (DGI-2-40F-3-C8; listed as Escherichia coli) , value?
a: 5.7

q: Checklist item: DGI-2 (OD) tested on DGI-2 (Homo sapiens), entry EGNWFCAVFRGFCVGDRGPE (DGI-2-20R-3-A1; listed as Escherichia coli) , value?
a: 7.1

q: Checklist item: DGI-2 (OD) tested on DGI-2 (Homo sapiens), entry VTGTRFRGFAVACVRMGTWH (DGI-2-20F-PP-F2; listed as Escherichia coli) , value?
a: 2.4

q: Checklist item: DGI-2 (OD) tested on DGI-2 (Homo sapiens), entry WFTHVVEKIF [DGI-2-40F-3-A4] , value?
a: 1.1

q: Checklist item: DGI-2 (OD) tested on DGI-2 (Homo sapiens), entry PAMGHCMQVLGPVLEGRSRDQVGR (DGI-2-20R-4-G6; listed as Escherichia coli) , value?
a: 1.6

q: Checklist item: DGI-2 (OD) tested on DGI-2 (Homo sapiens), entry HPWVTNMLVFQRPPPPGFWLSDTTPRQRNGLGQVERPSVD (DGI-2-40F-3-C7; listed as Escherichia coli) , value?
a: 1.2

q: Checklist item: DGI-2 (OD) tested on DGI-2 (Homo sapiens), entry TPDRCLIYSSIQCLLEYSARRGSAD (DGI-2-20C-3-C65; listed as Escherichia coli) , value?
a: 1.8

q: Checklist item: DGI-2 (OD) tested on DGI-2 (Homo sapiens), entry WWERFVWGRPVDDGVVVMAT (DGI-2-20R-3-B1; listed as Escherichia coli) , value?
a: 6.3
